test.name: protein stability index of a GFP-peptide fusion (yeast GPS) (PSI 1-4); higher = more stable; sorted into four equal gates, so the index is relative within each strain
study.conditions: san1∆
Each record's protein stability index is compared with lower = under 2, middle = from 2 up to 3, upper = 3 and over to give its class.

Below are worked cases with known answers.
entry.sequence | class.label
KLKQLLDESSEQKNTAK [YIL149C/MLP2] | middle
QLNGNETFSTSAHQSPI [SNF2] | upper
AAGYGKILGKGRIPNVP [RPL28] | upper

Hi, small favor: classify STDKLVQCHGSFATATC [SIR2] by its protein stability index when you get a moment.
middle

Thanks! And REHSLQLFRTNKVQIMI [PRP28] ?
lower

Repeat for the following sequence: NFEYDLSEYDAIQKKDN [YOR098C/NUP1]
middle

What do we get for FKMNEIVPLHSPFLMGH [SEC65] ?
middle

// query: EDAKYVINLKQIAKFVV [RPT1]
lower

Check LHQRTHKQVYPLRMETI [DSN1] too.
middle
